Target: Voltage-gated inwardly rectifying potassium channel KCNH2 (Homo sapiens)
Sequence (Q12809 whole entry): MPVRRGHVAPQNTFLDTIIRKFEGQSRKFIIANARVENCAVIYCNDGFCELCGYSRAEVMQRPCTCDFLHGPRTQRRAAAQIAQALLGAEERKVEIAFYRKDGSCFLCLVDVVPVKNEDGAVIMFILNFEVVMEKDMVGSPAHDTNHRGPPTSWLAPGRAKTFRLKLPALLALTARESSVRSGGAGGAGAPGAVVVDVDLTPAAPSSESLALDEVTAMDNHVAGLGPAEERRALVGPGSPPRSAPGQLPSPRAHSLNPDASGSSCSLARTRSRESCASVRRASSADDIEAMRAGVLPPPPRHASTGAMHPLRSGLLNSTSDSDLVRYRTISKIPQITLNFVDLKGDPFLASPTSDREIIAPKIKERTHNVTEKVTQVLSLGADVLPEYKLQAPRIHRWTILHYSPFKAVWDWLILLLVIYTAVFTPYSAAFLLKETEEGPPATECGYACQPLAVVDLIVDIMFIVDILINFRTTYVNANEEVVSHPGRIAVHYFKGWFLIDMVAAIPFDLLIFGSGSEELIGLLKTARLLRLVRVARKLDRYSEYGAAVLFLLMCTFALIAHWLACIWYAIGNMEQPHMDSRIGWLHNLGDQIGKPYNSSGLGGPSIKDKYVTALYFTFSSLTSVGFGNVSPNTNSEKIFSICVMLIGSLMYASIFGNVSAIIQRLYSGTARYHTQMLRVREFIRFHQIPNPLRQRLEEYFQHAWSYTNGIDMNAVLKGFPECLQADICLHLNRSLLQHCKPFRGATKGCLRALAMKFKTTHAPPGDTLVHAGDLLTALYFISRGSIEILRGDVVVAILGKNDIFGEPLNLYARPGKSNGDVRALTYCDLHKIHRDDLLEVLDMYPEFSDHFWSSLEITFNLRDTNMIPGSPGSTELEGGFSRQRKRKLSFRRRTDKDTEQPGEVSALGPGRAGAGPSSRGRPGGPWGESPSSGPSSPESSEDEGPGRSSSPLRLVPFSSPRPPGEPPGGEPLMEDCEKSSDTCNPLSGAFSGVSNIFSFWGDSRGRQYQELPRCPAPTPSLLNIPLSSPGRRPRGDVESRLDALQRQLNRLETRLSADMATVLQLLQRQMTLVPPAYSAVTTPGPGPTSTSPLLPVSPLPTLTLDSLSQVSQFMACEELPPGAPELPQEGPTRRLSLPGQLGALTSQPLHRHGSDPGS
pIC50: −log10 of the molar value.
Returns one of satisfied or not satisfied; satisfied when pIC50 is >= 5.

Known results for molecules:
Has Cc1cc(S(C)(=O)=O)nc2c(CCC34CCC(NCc5ccc6c(n5)NC(=O)CO6)(CC3)CO4)ccnc12 a recorded pIC50 greater than or equal to 5? satisfied

Next record, please: CN(C)c1cnc2c(CCC34CCC(NCc5ccc6c(n5)NC(=O)CO6)(CC3)CO4)c(F)cnc2c1 not satisfied

Query molecule follows.
Has CCOc1cc(C)c2ncc(F)c(CCC34CCC(NCc5ccc6c(n5)NC(=O)CO6)(CC3)CO4)c2n1 a recorded pIC50 greater than or equal to 5? satisfied

The origin of these recorded values is ChEMBL document CHEMBL3421558.
